Target: murine ATGL (Mus musculus)
Construct: expressed in transfected cells; host or cells: COS-7 (ATCC CRL-1651), transient transfection with Metafectene; crude lysate after 1000 x g spin
Sequence (Q8BJ56 whole entry): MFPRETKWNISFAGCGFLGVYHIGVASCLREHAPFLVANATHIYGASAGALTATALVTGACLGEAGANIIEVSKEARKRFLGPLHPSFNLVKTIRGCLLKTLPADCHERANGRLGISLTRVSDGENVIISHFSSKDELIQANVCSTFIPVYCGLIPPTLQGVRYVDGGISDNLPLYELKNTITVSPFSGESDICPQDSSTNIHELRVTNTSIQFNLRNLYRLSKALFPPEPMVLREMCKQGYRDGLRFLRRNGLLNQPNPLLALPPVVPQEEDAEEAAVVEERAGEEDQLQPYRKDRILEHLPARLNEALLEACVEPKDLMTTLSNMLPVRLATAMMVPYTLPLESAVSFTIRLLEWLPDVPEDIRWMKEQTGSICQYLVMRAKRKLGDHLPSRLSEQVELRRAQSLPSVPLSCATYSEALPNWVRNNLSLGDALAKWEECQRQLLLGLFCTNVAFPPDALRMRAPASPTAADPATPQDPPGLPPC
Assay: Triglyceride hydrolase activity assay with COS7-cell lysate overexpressing recombinant murine ATGL, radiolabelled triolein substrate
Format: biochemical
Conditions: COS7-cell lysate overexpressing murine ATGL
measurement-name: biological activity against ATGL (in words)

Cc1ccc(/C=N/N2CCN(c3ccccc3)CC2)cc1 [Compound 1t]; inactive
C(=N\N1CCN(c2ccccc2)CC1)/c1ccncc1 [Compound 2g]; moderate activity
C1=C(/C=N/N2CCN(c3ccccc3)CC2)CCCC1 [Compound 2d]; moderate activity
COc1ccc(C(=O)NN2CCN(c3ccccc3)CC2)cc1OC [Compound 10]; inactive

Requested read-out: biological activity against ATGL (in words). Entry: Clc1ccc(/C=N/N2CCN(c3ccccc3)CC2)cc1Cl [Compound 1n]
inactive

---

melting point by entry:

C(=N\N1CCN(c2ccccc2)CC1)/c1ccccn1; 117 to 119 °C

Please turn your attention to the following entry.
Requested read-out: melting point. Entry: `Oc1ccc(/C=N/N2CCC(Cc3ccccc3)CC2)c(O)c1`
138 to 141 °C

---

Target: murine ATGL (Mus musculus)
Construct: expressed in transfected cells; host or cells: COS-7 (ATCC CRL-1651), transient transfection with Metafectene; crude lysate after 1000 x g spin
Assay: Triglyceride hydrolase activity assay with COS7-cell lysate overexpressing recombinant murine ATGL, radiolabelled triolein substrate
Assay type: biochemical
Settings: 1 h; ATGL-inhibition efficiency at 200 μM inhibitor; read-out: I200 (%)
measurement-name: inhibition at 200 µM (%)
Give just the number in %; leave the unit off.

Here's what some known entries look like.
COc1ccc(/C=N/N2CCN(c3ccccc3)CC2)cc1OC; 65
Oc1ccc(/C=N/N2CCN(C3CCCC3)CC2)c(O)c1; 36
C(=N\N1CCN(c2ccccc2)CC1)/c1cccc2ccccc12; 49
CCC/C=C/C=N/N1CCN(c2ccccc2)CC1; 12
Oc1ccc(/C=N/N2CCN(CCc3ccccc3)CC2)c(O)c1; 14

Requested read-out: inhibition at 200 µM. Entry: `Oc1ccc(/C=N/N2CCC(Cc3ccccc3)CC2)c(O)c1`
26

Further, for `Oc1ccccc1/C=N/N1CCN(c2ccccc2)CC1` ?
64

Further, for `Oc1ccc(/C=N/N2CCN(c3ccncc3)CC2)c(O)c1` ?
19

Further, for `Oc1ccc(/C=N/N2CCN(c3ccccc3)CC2)cc1O` ?
69

Further, for `Clc1ccc(/C=N/N2CCN(c3ccccc3)CC2)c(Cl)c1` ?
42

---

melting point by entry:

Requested read-out: melting point. Entry: Clc1ccc(/C=N/N2CCN(c3ccccc3)CC2)cc1Cl [Compound 1n]
176 to 178 °C

Further, for Oc1ccc(/C=N/N2CCN(c3ccncc3)CC2)c(O)c1 [Compound 3a] ?
270 to 273 °C (dec.)

---

measurement-name: melting point

Here's what some known entries look like.
Fc1ccc(/C=N/N2CCN(c3ccccc3)CC2)cc1F; 152 to 154 °C
Oc1ccc(/C=N/N2CCN(c3ccccc3)CC2)c(O)c1; 183 to 184 °C
C(=N\N1CCN(c2ccccc2)CC1)/c1cccnc1; 111 to 113 °C
C1=C(/C=N/N2CCN(c3ccccc3)CC2)CCCC1; 118 to 120 °C
Oc1ccc(/C=N/N2CCN(C3CCCC3)CC2)c(O)c1; 237 to 239 °C (dec.)
COc1ccc(/C=N/N2CCN(c3ccccc3)CC2)cc1O; 180 °C (dec.)
Oc1ccc(CN2CCN(c3ccccc3)CC2)cc1O; 100 to 102 °C

Please turn your attention to the following entry.
Requested read-out: melting point. Entry: `Oc1ccccc1/C=N/N1CCN(c2ccccc2)CC1`
138 to 142 °C

---

inhibition at 200 µM by entry:
Biological target: murine ATGL (Mus musculus)
Construct: expressed in transfected cells; host or cells: COS-7 (ATCC CRL-1651), transient transfection with Metafectene; crude lysate after 1000 x g spin
Test: Triglyceride hydrolase activity assay with COS7-cell lysate overexpressing recombinant murine ATGL, radiolabelled triolein substrate
Format: biochemical
Conditions: 1 h; ATGL-inhibition efficiency at 200 μM inhibitor; read-out: I200 (%)
Give just the number in %; leave the unit off.

COc1ccc(NC(=O)N2CCN(c3ccccc3)CC2)cc1OC; 40
Oc1ccc(/C=N/N2CCN(c3ccccc3)CC2)cc1; 85
C1=C(/C=N/N2CCN(c3ccccc3)CC2)CCCC1; 58
Oc1ccc(/C=N/N2CCN(c3ccc(F)cc3)CC2)c(O)c1; 78

Requested read-out: inhibition at 200 µM. Entry: `Oc1ccc(/C=N/N2CCN(c3ccccc3)CC2)c(O)c1`
94

Further, for `Oc1ccc(/C=N/N2CCCN(c3ccccc3)CC2)c(O)c1` ?
87

---

measurement-name: melting point

Oc1ccc(/C=N/N2CCN(c3ccccc3)CC2)cc1O; 180 °C
O=[N+]([O-])c1ccccc1/C=N/N1CCN(c2ccccc2)CC1; 103 to 106 °C

Please turn your attention to the following entry.
Requested read-out: melting point. Entry: `COc1cc(OC)c(OC)cc1/C=N/N1CCN(c2ccccc2)CC1`
153 to 156 °C

---

Target: murine ATGL (Mus musculus)
Construct: expressed in transfected cells; host or cells: COS-7 (ATCC CRL-1651), transient transfection with Metafectene; crude lysate after 1000 x g spin
Assay: Triglyceride hydrolase activity assay with COS7-cell lysate overexpressing recombinant murine ATGL, radiolabelled triolein substrate;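 further: radioactivity from the triolein substrate quantified by liquid scintillation counting after phase separation, reflecting triglyceride hydrolase activity of murine ATGL in lysates of transfected COS-7 cells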
Assay type: biochemical
Details: 1 h; ATGL-inhibition efficiency at 200 μM inhibitor; read-out: I200 (%)
measurement-name: inhibition at 200 µM (%)
Give just the number in %; leave the unit off.

Here's what some known entries look like.
Oc1ccc(/C=N/N2CCN(C3CCCCC3)CC2)c(O)c1; 25
C(=N\N1CCN(c2ccccc2)CC1)/c1ccc2c(c1)OCO2; 64
Brc1ccccc1/C=N/N1CCN(c2ccccc2)CC1; 73
C(=N\N1CCN(c2ccccc2)CC1)/c1ccccn1; 16
Cc1cccc(N2CCN(/N=C/c3ccc(O)cc3O)CC2)c1; 44
Clc1ccc(/C=N/N2CCN(c3ccccc3)CC2)cc1Cl; 20
C(=N\N1CCN(c2ccccc2)CC1)/c1ccncc1; 60
C(=N\N1CCN(c2ccccc2)CC1)/c1cccnc1; 46
Oc1ccc(/C=N/N2CCN(Cc3ccccc3)CC2)c(O)c1; 48
C(=N\N1CCN(c2ccccc2)CC1)/c1ccc2ccccc2n1; 8

Requested read-out: inhibition at 200 µM. Entry: `O=c1[nH]c2ccc(/C=N/N3CCN(c4ccccc4)CC3)cc2[nH]1`
16

Further, for `COc1ccc(C(=O)NN2CCN(c3ccccc3)CC2)cc1OC` ?
38

Further, for `CN(CCO)c1ccc(/C=N/N2CCN(c3ccccc3)CC2)cc1` ?
5

Sourced from paper PMC4457358
